src = patent US20240116985A1

Molecular target: full-length beta-Catenin (Uniprot ID P35222) (Homo sapiens)
Construct: 10 nM full-length beta-Catenin (Uniprot ID P35222)
Sequence (P35222 whole entry): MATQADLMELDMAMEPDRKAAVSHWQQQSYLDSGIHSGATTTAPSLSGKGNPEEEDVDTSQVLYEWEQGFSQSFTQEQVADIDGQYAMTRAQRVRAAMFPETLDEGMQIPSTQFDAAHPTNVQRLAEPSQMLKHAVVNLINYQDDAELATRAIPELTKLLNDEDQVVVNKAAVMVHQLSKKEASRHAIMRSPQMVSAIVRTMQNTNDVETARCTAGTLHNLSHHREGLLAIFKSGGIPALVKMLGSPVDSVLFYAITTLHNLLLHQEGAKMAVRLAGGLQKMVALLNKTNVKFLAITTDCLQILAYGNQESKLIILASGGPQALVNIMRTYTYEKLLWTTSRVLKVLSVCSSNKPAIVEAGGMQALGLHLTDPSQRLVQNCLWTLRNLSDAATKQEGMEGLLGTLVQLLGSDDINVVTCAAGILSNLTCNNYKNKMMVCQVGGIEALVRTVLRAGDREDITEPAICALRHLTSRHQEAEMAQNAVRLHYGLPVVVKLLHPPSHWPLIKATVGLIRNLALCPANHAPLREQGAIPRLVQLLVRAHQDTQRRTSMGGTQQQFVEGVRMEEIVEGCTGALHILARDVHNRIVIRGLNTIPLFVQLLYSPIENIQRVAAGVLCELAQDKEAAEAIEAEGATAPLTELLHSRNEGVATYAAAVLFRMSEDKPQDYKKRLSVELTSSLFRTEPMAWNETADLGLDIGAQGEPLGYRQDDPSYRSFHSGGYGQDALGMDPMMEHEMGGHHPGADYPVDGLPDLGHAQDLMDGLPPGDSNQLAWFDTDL
Test: Fluorescence polarization IC50 (beta-catenin / 5FAM-TCF4 10-53 competition)
Type: binding
Conditions: read-out: FP EC50
pIC50: −log10 of the molar value.
assay-endpoint: pIC50

INSERT INTO measurements (compound, value) VALUES
  ('CC[C@H](C)[C@@H]1NC(=O)[C@H](CC(=O)O)NC(=O)[C@]2(CC=CCCCC3(CCCC=CCCCCCC[C@@](C)(C(=O)N[C@@H](Cc4ccccc4OC)C(=O)N[C@@H](Cc4csc5ccccc45)C(=O)N[C@@H](Cc4c[nH]cn4)C(N)=O)NC(=O)[C@H](CC(N)=O)NC(=O)[C@H](Cc4ccccc4)NC(=O)[C@H](C)NC(=O)[C@H](C)NC(=O)[C@H](CC(=O)O)NC(=O)[C@H](CC(=O)O)NC3=O)NC1=O)CCCN2C(C)=O (some centres unmarked) [I-554]', 7.56),
  ('CC(=O)N1CCC[C@]12CC=CCCCC1(CCCC=CCCCCCC[C@@](C)(C(=O)N[C@@H](Cc3ccccc3)C(=O)N[C@@H](Cc3csc4ccccc34)C(N)=O)NC(=O)[C@H](CCCNC(N)=O)NC(=O)[C@H](Cc3ccccc3)NC(=O)[C@H](C)NC(=O)[C@H](C)NC(=O)[C@H](CCC(=O)O)NC(=O)[C@H](CC(=O)O)NC1=O)NC(=O)[C@H](CC(C)C)NC(=O)[C@H](CC(=O)O)NC2=O (some centres unmarked) [I-629]', 6.16),
  ('CC(=O)N1CCC[C@]12CC=CCCCC1(CCCC=CCOC(=O)N(C)CCC[C@@](C)(C(=O)N[C@@H](Cc3ccsc3)C(=O)N[C@@H](Cc3csc4ccccc34)C(=O)N[C@@H](CCC(N)=O)C(N)=O)NC(=O)[C@H](CC(N)=O)NC(=O)[C@H](Cc3ccccc3)NC(=O)[C@H](C)NC(=O)[C@H](C)NC(=O)[C@H](CC(=O)O)NC(=O)[C@H](CC(=O)O)NC1=O)NC(=O)[C@H](CC(C)(C)C)NC(=O)[C@H](CC(=O)O)NC2=O (some centres unmarked) [I-766]', 7.26),
  ('CC(=O)N1CCC[C@]12CC=CCCCC1(CCCC=CCCCCCC[C@@](C)(C(=O)N[C@@H](Cc3ccsc3)C(=O)N[C@@H](Cc3csc4ccccc34)C(=O)N[C@@H](CCC(N)=O)C(N)=O)NC(=O)[C@H](CC(N)=O)NC(=O)[C@H](Cc3ccccc3)NC(=O)[C@H](C)NC(=O)[C@H](C)NC(=O)[C@H](CCC(=O)O)NC(=O)[C@H](CC(=O)O)NC1=O)NC(=O)[C@H](CC(C)(C)C)NC(=O)[C@H](CC(=O)O)NC2=O (some centres unmarked) [I-682]', 7.39),
  ('CC(=O)N1CCC[C@]12CC=CCCCC1(CCCC=CCCCCCC[C@@](C)(C(=O)N[C@@H](Cc3ccccc3)C(=O)N[C@@H](Cc3csc4ccccc34)C(=O)N[C@@H](CO)C(N)=O)NC(=O)[C@H](CC(N)=O)NC(=O)[C@H](Cc3ccccc3)NC(=O)[C@H](C)NC(=O)[C@H](C)NC(=O)[C@H](CCC(=O)O)NC(=O)[C@H](CC(=O)O)NC1=O)NC(=O)[C@H](CC(C)C)NC(=O)[C@H](CC(=O)O)NC2=O (some centres unmarked) [I-750]', 7.37);
